As shown below, each of these sequences has a reported median seed-adjusted z-score value.
# TEST_DETAILS: Novel Modifiers of Survival Motor Neuron (SMN) Protein: Gene Identification via Genome-wide siRNA Screen;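 note: luminescence tracks full-length SMN protein made from the SMN2 reporter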
# TEST_SETTINGS: HEK293T SMN2-luciferase reporter, siRNA knockdown, 72 h; actives lie on both sides
The whole screen tested about 31,000 sequences, of which about 1,400 (4.5%) were called active. This is one part of a sample in which actives are shown more often than they occur.
Please reply with the value in numeric form only.

>>> observed_value("AUGUUUCAAUAGAUCCAGATT against LIMD2")
0.418
>>> observed_value("CGGCAAUCCUUACGGCUAATT against DSG4")
-0.0211

// moving on: another record for median seed-adjusted z-score
median seed-adjusted z-score measured on GAGUGGACAUUCUAAUCAATT against RDH13 = 0.208
